# credit: ChEMBL document CHEMBL1201862

tested on: SK-MEL-5; assay: NCI tumour cell line growth inhibition, 48 h
The source made the active and inactive calls. No stated cut-off is given here; in the data, active = GI50 up to about 1.1 µM and inactive = higher.
Measured GI50, listed per entry for reference.
quantity.measured: GI50

Cc1ccc(S(=O)(=O)N2CCc3cc(O)c([N+](=O)[O-])cc32)cc1    > 100 µM (inactive)
COC(=O)C(Cc1nc2ccc(Cl)cc2nc1O)/C(=N/O)C(=O)Nc1cccc(Cl)c1C (stereo not given)    > 100 µM (inactive)
Cc1cc(NS(=O)(=O)c2ccc(NC(=O)COC(=O)c3cccc4c(=O)c5ccccc5[nH]c34)cc2)no1    > 100 µM (inactive)
CCOc1ccc2ccc3cccnc3c2n1    32.7 µM (inactive)
Cc1nc2ccc(NCCN(C)C)c3c(=O)c4cc(O)ccc4n1c23    1.73 µM (inactive)
NC1=NN(c2ccccc2)C(=O)C1C(=O)CCC(=O)Nc1cccc(Cl)c1 (stereo not given)    > 100 µM (inactive)
c1csc(-c2nccc3c2[nH]c2ccccc23)c1    16.7 µM (inactive)
CN(CCN)[C@H](CSSC[C@@H](c1ccccc1O)N(C)CCN)c1ccccc1O    12 µM (inactive)
COc1cc2c(c(OC)c1OC)-c1ccc(SC)c(=O)cc1[C@@H](NCc1ccc(C#N)cc1)CC2    0.00365 µM (active)
COc1cc(NS(C)(=O)=O)ccc1Nc1c2ccccc2nc2c1[nH]c1ccc(NC3OC(CO)C(O)C(O)C3O)cc12 (stereo not given)    0.0859 µM (active)
